- test-description: Henry solubility constant Hcp at 298.15 K (mol/(m3 Pa))
- conditions-used: reference: ten Hulscher et al. (1992)
Each entry gets False if its Henry solubility constant Hcp stays under 20, and True if its Henry solubility constant Hcp is 20 or above.

{"compound": "c1ccc2c(c1)cc1ccc3cccc4ccc2c1c34 [benzo[a]pyrene]", "label-class": "True"}
{"compound": "c1ccc2c(c1)-c1cccc3cccc-2c13 [benzo[jk]fluorene]", "label-class": "False"}
{"compound": "c1ccc2c(c1)-c1ccc3ccc4cccc5cc-2c1c3c45 [indeno[1,2,3-cd]pyrene]", "label-class": "True"}
{"compound": "Clc1ccc(Cl)c(-c2ccccc2)c1", "label-class": "False"}
{"compound": "c1ccc2c(c1)-c1cccc3c1c-2cc1ccccc13 [benzo[b]fluoranthene]", "label-class": "False"}
{"compound": "c1cc2ccc3ccc4ccc5cccc6c(c1)c2c3c4c56 [benzo[ghi]perylene]", "label-class": "True"}
{"compound": "c1ccc2cc3c(cc2c1)-c1cccc2cccc-3c12 [benzo[k]fluoranthene]", "label-class": "False"}
{"compound": "Clc1ccc(Cl)c(-c2cc(Cl)ccc2Cl)c1", "label-class": "False"}
